Reported pIC50 values follow for various compounds
Target: human TLR9 (Homo sapiens, UniProt Q9NR96)
Sequence (Q9NR96 26-1032): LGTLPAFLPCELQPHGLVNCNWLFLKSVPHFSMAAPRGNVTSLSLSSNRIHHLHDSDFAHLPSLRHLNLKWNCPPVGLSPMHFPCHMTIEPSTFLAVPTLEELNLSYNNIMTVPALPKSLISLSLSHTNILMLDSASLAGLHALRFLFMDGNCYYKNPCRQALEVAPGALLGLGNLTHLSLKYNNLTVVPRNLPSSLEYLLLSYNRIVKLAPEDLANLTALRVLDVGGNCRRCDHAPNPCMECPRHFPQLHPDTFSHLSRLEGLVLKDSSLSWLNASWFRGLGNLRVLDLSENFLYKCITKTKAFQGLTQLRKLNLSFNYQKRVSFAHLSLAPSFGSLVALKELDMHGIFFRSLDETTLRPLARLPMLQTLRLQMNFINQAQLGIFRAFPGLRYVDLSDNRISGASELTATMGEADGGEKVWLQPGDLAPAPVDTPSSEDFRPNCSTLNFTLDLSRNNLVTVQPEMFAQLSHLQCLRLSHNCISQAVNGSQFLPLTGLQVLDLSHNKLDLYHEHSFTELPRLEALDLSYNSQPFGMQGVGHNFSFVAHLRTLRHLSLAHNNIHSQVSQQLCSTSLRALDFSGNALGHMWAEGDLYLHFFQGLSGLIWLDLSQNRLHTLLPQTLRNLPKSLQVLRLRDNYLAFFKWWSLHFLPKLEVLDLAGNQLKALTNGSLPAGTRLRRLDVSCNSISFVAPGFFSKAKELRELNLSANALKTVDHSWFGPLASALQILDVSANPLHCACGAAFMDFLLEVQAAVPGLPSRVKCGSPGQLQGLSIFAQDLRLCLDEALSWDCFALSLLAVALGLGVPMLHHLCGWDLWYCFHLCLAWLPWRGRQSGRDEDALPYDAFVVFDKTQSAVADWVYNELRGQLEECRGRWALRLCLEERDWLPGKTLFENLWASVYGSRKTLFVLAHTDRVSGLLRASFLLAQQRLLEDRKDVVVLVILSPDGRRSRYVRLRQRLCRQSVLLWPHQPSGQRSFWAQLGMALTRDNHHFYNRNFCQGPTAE
Test: TLR7/8/9 Inhibition Reporter Assays (TLR9)
Details: HEK-Blue cells overexpressing human TLR9, SEAP reporter, stimulated with TLR9 ligand ODN2006
pIC50: −log10 of the molar value.
reported property: pIC50

[[record]]
structure_smiles_string = "Cc1nc(-c2ccc(N3C[C@@H]4CN(C(C)C)C[C@@H]4C3)cc2)cc2c1nc(-c1ccc(S(C)(=O)=O)cc1)n2C"
experimental_target = "human TLR9 (Homo sapiens, UniProt Q9NR96)"
reported_property = "pIC50"
val = 7.39

[[record]]
structure_smiles_string = "COc1ccc(-c2nc3c(C)nc(-c4ccc(N5CCN(C(C)C)CC5)cc4)cc3n2C)cc1OC"
experimental_target = "human TLR9 (Homo sapiens, UniProt Q9NR96)"
reported_property = "pIC50"
val = 6.66

[[record]]
structure_smiles_string = "COc1ccc(-c2nc3c(C)nc(-c4ccc(N5CC6(C5)CN(C5COC5)C6)cc4)cc3n2C)cc1OC"
experimental_target = "human TLR9 (Homo sapiens, UniProt Q9NR96)"
reported_property = "pIC50"
val = 6.49

[[record]]
structure_smiles_string = "COc1cc(-c2nc3c(C)nc(-c4ccc(N5CCN(C6CCC6)CC5)cc4)cc3n2C)cn2ncnc12"
experimental_target = "human TLR9 (Homo sapiens, UniProt Q9NR96)"
reported_property = "pIC50"
val = 6.20

[[record]]
structure_smiles_string = "Cc1nc(-c2ccc(N3CCC(N4CCCC4)CC3)cc2)c(F)c2c1nc(-c1ccc(S(C)(=O)=O)cc1)n2C"
experimental_target = "human TLR9 (Homo sapiens, UniProt Q9NR96)"
reported_property = "pIC50"
val = 5.60

[[record]]
structure_smiles_string = "COc1ccc(-c2nc3c(C)nc(-c4ccc(N5CCN(CC(C)C)CC5)cc4)cc3n2C)cc1OC"
experimental_target = "human TLR9 (Homo sapiens, UniProt Q9NR96)"
reported_property = "pIC50"
val = 6.34

[[record]]
structure_smiles_string = "Cc1cc(-c2nc3c(C)nc(-c4ccc(N5CCN(C6CCC6)CC5)cc4)cc3n2C)cc(C)n1"
experimental_target = "human TLR9 (Homo sapiens, UniProt Q9NR96)"
reported_property = "pIC50"
val = 6.04

[[record]]
structure_smiles_string = "Cc1nc(C2CCN(C3CCN(C(C)C)CC3)CC2)cc2c1nc(-c1ccc(S(C)(=O)=O)cc1)n2C"
experimental_target = "human TLR9 (Homo sapiens, UniProt Q9NR96)"
reported_property = "pIC50"
val = 6.89

[[record]]
structure_smiles_string = "Cc1nc(-c2ccc(CN3CCC(N4CCOCC4)CC3)cc2)cc2c1nc(-c1ccc(S(C)(=O)=O)cc1)n2C"
experimental_target = "human TLR9 (Homo sapiens, UniProt Q9NR96)"
reported_property = "pIC50"
val = 6.62

[[record]]
structure_smiles_string = "Cc1nc(-c2ccc(C3CCN(CC4COC4)CC3)cc2)cc2c1nc(-c1ccc(S(C)(=O)=O)cc1)n2C"
experimental_target = "human TLR9 (Homo sapiens, UniProt Q9NR96)"
reported_property = "pIC50"
val = 5.96

[[record]]
structure_smiles_string = "Cc1nc(-c2ccc(N3CCC4(CC3)CN(C(C)C)C4)cc2)cc2c1nc(-c1ccc(S(C)(=O)=O)cc1)n2C"
experimental_target = "human TLR9 (Homo sapiens, UniProt Q9NR96)"
reported_property = "pIC50"
val = 6.80

[[record]]
structure_smiles_string = "Cc1nc(-c2ccc(CN3CCC(N(C)C)CC3)cc2)cc2c1nc(-c1ccc(S(C)(=O)=O)cc1)n2C"
experimental_target = "human TLR9 (Homo sapiens, UniProt Q9NR96)"
reported_property = "pIC50"
val = 7.14

[[record]]
structure_smiles_string = "Cc1nc(-c2ccc(N3C[C@H]4CN(CC(C)C)C[C@H]4C3)cc2)cc2c1nc(-c1ccc(S(C)(=O)=O)cc1)n2C"
experimental_target = "human TLR9 (Homo sapiens, UniProt Q9NR96)"
reported_property = "pIC50"
val = 7.49

[[record]]
structure_smiles_string = "CC(C)N1CC2(CCN(c3ccc(-c4cc5c(cn4)nc(-c4ccc(S(C)(=O)=O)cc4)n5C4CC4)cc3)CC2)C1"
experimental_target = "human TLR9 (Homo sapiens, UniProt Q9NR96)"
reported_property = "pIC50"
val = 6.60

[[record]]
structure_smiles_string = "COc1ccc(-c2nc3c(C)nc(-c4ccc(N5CCC6(CC5)CN(CC(C)(C)O)C6)cc4)cc3n2C)cc1OC"
experimental_target = "human TLR9 (Homo sapiens, UniProt Q9NR96)"
reported_property = "pIC50"
val = 6.00

[[record]]
structure_smiles_string = "COc1ccc(-c2nc3cnc(-c4ccc(N5CCC6(CC5)CN(CC(C)C)C6)cc4)cc3n2C2CC2)cc1OC"
experimental_target = "human TLR9 (Homo sapiens, UniProt Q9NR96)"
reported_property = "pIC50"
val = 6.80

[[record]]
structure_smiles_string = "CC(C)N1C[C@H]2CN(c3ccc(-c4cc5c(cn4)nc(-c4ccc(S(C)(=O)=O)cc4)n5C4CC4)cc3)C[C@H]2C1"
experimental_target = "human TLR9 (Homo sapiens, UniProt Q9NR96)"
reported_property = "pIC50"
val = 6.54

[[record]]
structure_smiles_string = "CS(=O)(=O)c1ccc(-c2nc3cnc(-c4ccc(N5CCN(CCN6CCOCC6)CC5)cc4)cc3n2C2CC2)cc1"
experimental_target = "human TLR9 (Homo sapiens, UniProt Q9NR96)"
reported_property = "pIC50"
val = 6.06

[[record]]
structure_smiles_string = "Cn1c(-c2ccc(S(C)(=O)=O)cc2)nc2cnc(C3CCN(C4CCN(C5CC5)CC4)CC3)cc21"
experimental_target = "human TLR9 (Homo sapiens, UniProt Q9NR96)"
reported_property = "pIC50"
val = 6.89

[[record]]
structure_smiles_string = "Cc1nc(-c2ccc(N3CC4(CCN(CC(C)(C)O)CC4)C3)cc2)cc2c1nc(-c1ccc(S(C)(=O)=O)cc1)n2C"
experimental_target = "human TLR9 (Homo sapiens, UniProt Q9NR96)"
reported_property = "pIC50"
val = 6.19

[[record]]
structure_smiles_string = "Cc1nc(-c2ccc(N3CC4(CN(CC(C)C)C4)C3)cc2)cc2c1nc(-c1ccc(S(C)(=O)=O)cc1)n2C"
experimental_target = "human TLR9 (Homo sapiens, UniProt Q9NR96)"
reported_property = "pIC50"
val = 6.82

[[record]]
structure_smiles_string = "CC(C)N1CC2(CCN(c3ccc(-c4cc5c(cn4)nc(-c4ccc(S(C)(=O)=O)cc4)n5C)cc3)C2)C1"
experimental_target = "human TLR9 (Homo sapiens, UniProt Q9NR96)"
reported_property = "pIC50"
val = 6.66

[[record]]
structure_smiles_string = "Cc1nc(-c2ccc(N3CCC4(CC3)CN(CC(C)(C)O)C4)cc2)cc2c1nc(-c1ccc(S(C)(=O)=O)cc1)n2C"
experimental_target = "human TLR9 (Homo sapiens, UniProt Q9NR96)"
reported_property = "pIC50"
val = 6.77

[[record]]
structure_smiles_string = "CC(C)CN1CC2(CCN(c3ccc(-c4cc5c(cn4)nc(-c4ccc(S(C)(=O)=O)cc4)n5C)cc3)C2)C1"
experimental_target = "human TLR9 (Homo sapiens, UniProt Q9NR96)"
reported_property = "pIC50"
val = 6.66

[[record]]
structure_smiles_string = "COc1ccc(-c2nc3c(C)nc(-c4ccc(N5C[C@H]6CN(CC(C)C)C[C@H]6C5)cc4)cc3n2C)cc1OC"
experimental_target = "human TLR9 (Homo sapiens, UniProt Q9NR96)"
reported_property = "pIC50"
val = 7.23

[[record]]
structure_smiles_string = "COc1ccc(-c2nc3cnc(-c4ccc(N5C[C@H]6CN(CC(C)C)C[C@H]6C5)cc4)cc3n2C2CC2)cc1OC"
experimental_target = "human TLR9 (Homo sapiens, UniProt Q9NR96)"
reported_property = "pIC50"
val = 6.66

[[record]]
structure_smiles_string = "Cc1nc(-c2ccc(N3CC4(CCN(C(C)C)CC4)C3)cc2)cc2c1nc(-c1ccc(S(C)(=O)=O)cc1)n2C"
experimental_target = "human TLR9 (Homo sapiens, UniProt Q9NR96)"
reported_property = "pIC50"
val = 6.77

[[record]]
structure_smiles_string = "Cc1nc(-c2ccc(N3CCC(N4CCCC4)CC3)c(F)c2)cc2c1nc(-c1ccc(S(C)(=O)=O)cc1)n2C"
experimental_target = "human TLR9 (Homo sapiens, UniProt Q9NR96)"
reported_property = "pIC50"
val = 6.36

